targetOrSystem: T1, recombinant human CEACAM-1 (R&D Systems cat. no. 2244-CM-050) (human, UniProt P13688 35-428)
T1 construct: Coated on the ELISA plate at 0.5 ug/ml
T1 sequence (looked up): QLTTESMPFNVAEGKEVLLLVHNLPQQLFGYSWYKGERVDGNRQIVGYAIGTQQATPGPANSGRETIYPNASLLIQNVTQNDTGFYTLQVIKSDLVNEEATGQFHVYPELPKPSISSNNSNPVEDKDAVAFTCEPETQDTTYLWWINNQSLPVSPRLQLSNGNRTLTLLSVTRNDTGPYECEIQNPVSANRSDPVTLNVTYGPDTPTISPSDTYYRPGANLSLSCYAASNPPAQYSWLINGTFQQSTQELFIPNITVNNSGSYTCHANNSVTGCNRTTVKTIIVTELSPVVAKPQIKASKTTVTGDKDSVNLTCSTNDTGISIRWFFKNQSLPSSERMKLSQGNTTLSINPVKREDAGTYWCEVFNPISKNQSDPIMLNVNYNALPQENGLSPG
experimentalProtocol: competition ELISA on coated recombinant human CEACAM-1; competitor biotinylated chimeric CM-10 IgG1
Text: The binding of the biotinylated antibody was detected with streptavidin-HRP (Sigma cat. no. S5512) and TMB substrate (Invitrogen cat. no. 00-2023). The reaction was stopped with 3M HC1, absorbance read at 450 nm on a Dynex Technologies MRX TC II plate reader and the binding curves plotted.
We begin with a simple list: items and their reported IC50 normalized to CM-10.

Use the examples below as a reference point.
binder="humanized anti-CEACAM-1 variant VH4/VK3, IgG1 (antibody, V domains shown, Tested as human IgG1 / kappa antibody; only the variable regions are tied to this variant) VH: QVQLVQSGAEVKKPGASVKVSCKASGYAFTNNLIEWVRQAPGQGLEWIGVINPGSGDTNYNEKFKGRATLTADKSISTAYMELSRLRSDDTAVYYCARGDYYGGFAVDYWGQGTTVTVSS VL: DIQMTQSPSSLSASVGDRVTITCRTSQDIGNYLNWYQQKPGKAVKLLIYYTSRLHSGVPSRFSGSGSGTDYTFTISSLQPEDIATYFCQQGKSLPRTFGGGTKVEIK" experimentalvalue="1.56 ratio to IC50 of chimeric CM-10"
binder="humanized anti-CEACAM-1 variant VH5/VK1, IgG1 (antibody, V domains shown, Tested as human IgG1 / kappa antibody; only the variable regions are tied to this variant) VH: QVQLVQSGAEVKKPGASVKVSCKASGYAFTNNLIEWVRQAPGQGLEWIGVINPGSGDTNYNEKFKGRVTMTADKSISTAYMELSRLRSDDTAVYYCARGDYYGGFAVDYWGQGTTVTVSS VL: DIQMTQSPSSLSASVGDRVTITCRTSQDIGNYLNWYQQKPGKAVKLLIYYTSRLHSGVPSRFSGSGSGTDYTLTISSLQQEDIATYFCQQGKSLPRTFGGGTKVEIK" experimentalvalue="1.17 ratio to IC50 of chimeric CM-10"

Looking for the measured IC50 normalized to CM-10 of humanized anti-CEACAM-1 variant VH4/VK3, IgG4 (S241P) (antibody, V domains shown, Tested as human IgG4 (S241P) / kappa antibody; only the variable regions are tied to this variant) VH: QVQLVQSGAEVKKPGASVKVSCKASGYAFTNNLIEWVRQAPGQGLEWIGVINPGSGDTNYNEKFKGRATLTADKSISTAYMELSRLRSDDTAVYYCARGDYYGGFAVDYWGQGTTVTVSS VL: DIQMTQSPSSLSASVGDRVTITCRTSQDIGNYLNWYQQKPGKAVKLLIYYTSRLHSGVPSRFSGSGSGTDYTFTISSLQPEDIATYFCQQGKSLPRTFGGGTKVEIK , can you help?
1.06 ratio to IC50 of chimeric CM-10

Using the record for humanized anti-CEACAM-1 variant VH1/VK2, IgG4 (S241P) (antibody, V domains shown, Tested as human IgG4 (S241P) / kappa antibody; only the variable regions are tied to this variant) VH: QVQLVQSGAELKKPGASVKVSCKASGYAFTNNLIEWVKQAPGQGLEWIGVINPGSGDTNYNEKFKGRATLTADKSINTAYMELSSLTSDDSAVYFCARGDYYGGFAVDYWGQGTSVTVSS VL: DIQMTQSPSSLSASVGDRVTITCRTSQDIGNYLNWYQQKPGKAVKLLIYYTSRLHSGVPSRFSGSGSGTDYTLTISSLQPEDIATYFCQQGKSLPRTFGGGTKVEIK , report its IC50 normalized to CM-10.
1.36 ratio to IC50 of chimeric CM-10

I am curious: what IC50 normalized to CM-10 value has been reported for humanized anti-CEACAM-1 variant VH1/VK1, IgG1 (antibody, V domains shown, Tested as human IgG1 / kappa antibody; only the variable regions are tied to this variant) VH: QVQLVQSGAELKKPGASVKVSCKASGYAFTNNLIEWVKQAPGQGLEWIGVINPGSGDTNYNEKFKGRATLTADKSINTAYMELSSLTSDDSAVYFCARGDYYGGFAVDYWGQGTSVTVSS VL: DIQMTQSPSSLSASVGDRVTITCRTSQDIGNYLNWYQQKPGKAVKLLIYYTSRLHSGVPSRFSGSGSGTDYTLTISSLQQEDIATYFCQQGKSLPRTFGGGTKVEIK ?
1.46 ratio to IC50 of chimeric CM-10

Return reported IC50 normalized to CM-10; argument: humanized anti-CEACAM-1 variant VH2/VK3, IgG4 (S241P) (antibody, V domains shown, Tested as human IgG4 (S241P) / kappa antibody; only the variable regions are tied to this variant) VH: QVQLVQSGAEVKKPGASVKVSCKASGYAFTNNLIEWVKQAPGQGLEWIGVINPGSGDTNYNEKFKGRATLTADKSINTAYMELSRLRSDDTAVYFCARGDYYGGFAVDYWGQGTTVTVSS VL: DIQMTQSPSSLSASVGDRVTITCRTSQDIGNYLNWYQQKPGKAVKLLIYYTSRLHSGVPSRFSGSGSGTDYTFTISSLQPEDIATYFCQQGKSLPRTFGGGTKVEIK
1.16 ratio to IC50 of chimeric CM-10

Bench note: what IC50 normalized to CM-10 did humanized anti-CEACAM-1 variant VH5/VK2, IgG1 (antibody, V domains shown, Tested as human IgG1 / kappa antibody; only the variable regions are tied to this variant) VH: QVQLVQSGAEVKKPGASVKVSCKASGYAFTNNLIEWVRQAPGQGLEWIGVINPGSGDTNYNEKFKGRVTMTADKSISTAYMELSRLRSDDTAVYYCARGDYYGGFAVDYWGQGTTVTVSS VL: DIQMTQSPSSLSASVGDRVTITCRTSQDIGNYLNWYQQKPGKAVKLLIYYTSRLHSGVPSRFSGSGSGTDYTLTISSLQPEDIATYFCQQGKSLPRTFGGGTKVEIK show?
1.09 ratio to IC50 of chimeric CM-10

IC50 normalized to CM-10 lookup needed for humanized anti-CEACAM-1 variant VH4/VK1, IgG1 (antibody, V domains shown, Tested as human IgG1 / kappa antibody; only the variable regions are tied to this variant) VH: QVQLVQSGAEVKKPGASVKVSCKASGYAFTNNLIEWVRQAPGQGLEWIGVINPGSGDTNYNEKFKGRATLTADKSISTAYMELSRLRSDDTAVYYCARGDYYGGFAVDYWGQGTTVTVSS VL: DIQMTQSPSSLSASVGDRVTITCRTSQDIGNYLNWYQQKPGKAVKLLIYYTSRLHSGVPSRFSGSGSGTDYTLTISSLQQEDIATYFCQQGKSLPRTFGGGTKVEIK , thanks.
1.15 ratio to IC50 of chimeric CM-10

Which IC50 normalized to CM-10 is listed for humanized anti-CEACAM-1 variant VH1/VK1, IgG4 (S241P) (antibody, V domains shown, Tested as human IgG4 (S241P) / kappa antibody; only the variable regions are tied to this variant) VH: QVQLVQSGAELKKPGASVKVSCKASGYAFTNNLIEWVKQAPGQGLEWIGVINPGSGDTNYNEKFKGRATLTADKSINTAYMELSSLTSDDSAVYFCARGDYYGGFAVDYWGQGTSVTVSS VL: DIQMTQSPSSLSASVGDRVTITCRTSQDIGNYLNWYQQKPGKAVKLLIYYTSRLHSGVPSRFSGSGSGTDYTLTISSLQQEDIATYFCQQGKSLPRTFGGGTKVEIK ?
1.52 ratio to IC50 of chimeric CM-10

Which IC50 normalized to CM-10 is listed for humanized anti-CEACAM-1 variant VH1/VK3, IgG1 (antibody, V domains shown, Tested as human IgG1 / kappa antibody; only the variable regions are tied to this variant) VH: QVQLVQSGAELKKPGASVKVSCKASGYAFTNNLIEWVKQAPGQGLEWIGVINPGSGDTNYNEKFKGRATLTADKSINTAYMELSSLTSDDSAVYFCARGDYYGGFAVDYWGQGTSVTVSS VL: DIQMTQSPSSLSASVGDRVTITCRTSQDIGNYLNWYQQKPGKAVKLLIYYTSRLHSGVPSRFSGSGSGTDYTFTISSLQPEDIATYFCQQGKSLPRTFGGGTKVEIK ?
1.44 ratio to IC50 of chimeric CM-10
